system: Saccharomyces cerevisiae; assay: protein stability index of tFT-peptide fusion (C-terminal peptide) (PSI (0-1 scale)); higher = more stable (slower turnover); details: genetic background: das1 deletion; temperature: 30 C
Assay Metric: protein stability index
API note: the answer field is a bare number with no unit suffix.

Example results:
{"Sequence String": "FFSRIIAILVLM", "protein stability index": 0.337}
{"Sequence String": "IIIGTLLYVNVR", "protein stability index": 0.243}
{"Sequence String": "GLPRRFLLLSVV", "protein stability index": 0.354}

Task item: Look up protein stability index: VRLYLRSCVVES
Reply: 0.228

Task item: Also, PFPRCRLIFFFM please.
Reply: 0.549

Task item: Also, SFLRVRSLISCS please.
Reply: 0.223

Task item: Also, DFFTSFSLFFFL please.
Reply: 0.635

Task item: Also, MSIWKIFIWRLG please.
Reply: 0.494

Task item: Also, ILLICLQFFNLF please.
Reply: 0.394

Task item: Also, MVAHTVRVKCGI please.
Reply: 0.544

Task item: Also, LNTVALIRIVVS please.
Reply: 0.18

Task item: Also, VSPPPLSPPLSR please.
Reply: 0.671

Task item: Also, IQICLNRLRLFH please.
Reply: 0.63

Task item: Also, GKGVFGGLFFLV please.
Reply: 0.623

---

tested on: Saccharomyces cerevisiae; test: protein stability index of tFT-peptide fusion (C-terminal peptide) (PSI (0-1 scale)); higher = more stable (slower turnover); settings: genetic background: wild type; temperature: 37 C
protein stability index below 0.5 gives f; protein stability index at or above it gives t.

{"Sequence String": "PLRRPPPRPPWP", "Category": "t"}
{"Sequence String": "FYLSFWFLIFFF", "Category": "f"}

Task item: Hi, just wondering whether FLWAVSLCRSLV shows protein stability index of 0.5 or higher.
Reply: f

Task item: Also, PWGSHLYYVVCI please.
Reply: f

Task item: Also, TVRLPLILPCVL please.
Reply: t

---

test system: Saccharomyces cerevisiae; assay: protein stability index of tFT-peptide fusion (C-terminal peptide) (PSI (0-1 scale)); higher = more stable (slower turnover); settings: genetic background: wild type; temperature: 30 C
Assay Metric: protein stability index
API note: the answer field is a bare number with no unit suffix.

{"Sequence String": "RIVSGVVLLVFV", "protein stability index": 0.336}
{"Sequence String": "RAFDGYNSVDML", "protein stability index": 0.663}
{"Sequence String": "GSSRRMGEGVEM", "protein stability index": 0.69}
{"Sequence String": "RYSRVALRPRPP", "protein stability index": 0.579}
{"Sequence String": "CRRQLKVLKSMS", "protein stability index": 0.242}
{"Sequence String": "GVLPWQYSSFLS", "protein stability index": 0.694}

Task item: Look up protein stability index: PPPLSPPPPPRP
Reply: 0.664

---

system: Saccharomyces cerevisiae; assay: protein stability index of tFT-peptide fusion (C-terminal peptide) (PSI (0-1 scale)); higher = more stable (slower turnover); settings: genetic background: doa10 deletion; temperature: 30 C
protein stability index below 0.2 gives 0 (no); protein stability index at or above it gives 1 (yes).

Past entries and their recorded results:
{"Sequence String": "CPMFVKFFFCLY", "Category": "1 (yes)"}
{"Sequence String": "FCIFAMQICTSA", "Category": "0 (no)"}
{"Sequence String": "PLRKYLRHLLSL", "Category": "0 (no)"}

Task item: Hi, just wondering whether PFIPLLLAPALA shows protein stability index of 0.2 or higher.
Reply: 1 (yes)

Task item: Also, PPHRTLLQLRTN please.
Reply: 0 (no)

Task item: Also, FPVWTALLTVRA please.
Reply: 0 (no)

Task item: Also, LICRFLFFVCVG please.
Reply: 1 (yes)

Task item: Also, FMVYRIHSSAVM please.
Reply: 1 (yes)

Task item: Also, LFFFRLFVFWVF please.
Reply: 0 (no)

Task item: Also, MVAHTVRVKCGI please.
Reply: 1 (yes)

---

tested on: Saccharomyces cerevisiae; test: protein stability index of tFT-peptide fusion (C-terminal peptide) (PSI (0-1 scale)); higher = more stable (slower turnover); conditions: genetic background: wild type; temperature: 30 C
protein stability index reference
API note: the answer field is a bare number with no unit suffix.

{"Sequence String": "GLVCRKGSMGVR", "protein stability index": 0.671}
{"Sequence String": "FLPSLSLPLLLF", "protein stability index": 0.432}
{"Sequence String": "LHIHGAGIVCAG", "protein stability index": 0.467}
{"Sequence String": "KKRKVKKKKPNG", "protein stability index": 0.581}
{"Sequence String": "VCPCCPYVMIAG", "protein stability index": 0.489}

Task item: Look up protein stability index: LGWGRWFWGVRG
Reply: 0.653

Task item: Also, PPLSPRLLWSPV please.
Reply: 0.711

Task item: Also, PALLRLGTGAVG please.
Reply: 0.711

Task item: Also, LVRAWRGGVGGV please.
Reply: 0.669

Task item: Also, SCFDRQIFVPVC please.
Reply: 0.442

---

system: Saccharomyces cerevisiae; assay: protein stability index of tFT-peptide fusion (C-terminal peptide) (PSI (0-1 scale)); higher = more stable (slower turnover); details: genetic background: wild type; temperature: 30 C
protein stability index reference
API note: the answer field is a bare number with no unit suffix.

Example results:
{"Sequence String": "ILGQSVIMRIKM", "Assay Metric": "protein stability index", "Numeric Result": 0.636}
{"Sequence String": "AFVVPLFLCCCG", "Assay Metric": "protein stability index", "Numeric Result": 0.209}
{"Sequence String": "NFCVLLQFCVLV", "Assay Metric": "protein stability index", "Numeric Result": 0.36}
{"Sequence String": "VFLCVRLGFIFL", "Assay Metric": "protein stability index", "Numeric Result": 0.352}
{"Sequence String": "SFIFFVSCFFIF", "Assay Metric": "protein stability index", "Numeric Result": 0.266}
{"Sequence String": "GVYFIGISRCVC", "Assay Metric": "protein stability index", "Numeric Result": 0.208}

Task item: Look up protein stability index: TGPLVHLLCCCV
Reply: 0.315

Task item: Also, GEGISCLLRRLT please.
Reply: 0.286

Task item: Also, GWWCGIGVAVSV please.
Reply: 0.339

---

protein stability index reference
system: Saccharomyces cerevisiae; test: protein stability index of tFT-peptide fusion (C-terminal peptide) (PSI (0-1 scale)); higher = more stable (slower turnover); settings: genetic background: wild type; temperature: 30 C
API note: the answer field is a bare number with no unit suffix.

{"Sequence String": "ITLESGSYKFQD [SRP40 C-terminal 12 aa]", "Numeric Result": 0.639}
{"Sequence String": "SEETKKSCCSGK [CUP1-1 C-terminal 12 aa]", "Numeric Result": 0.757}
{"Sequence String": "HEYVTINGDYRS [ARG7 C-terminal 12 aa]", "Numeric Result": 0.702}
{"Sequence String": "IQISDVSMSPSL [PEX31 C-terminal 12 aa]", "Numeric Result": 0.717}
{"Sequence String": "KGHVHSPRHNND [YOR379C C-terminal 12 aa]", "Numeric Result": 0.713}

Task item: Look up protein stability index: PDDQIHSILLSL [MET13 C-terminal 12 aa]
Reply: 0.714

Task item: Also, FWTINDDYGFLT [YLR278C C-terminal 12 aa] please.
Reply: 0.771

Task item: Also, YNINDLYKSLTR [MAK32 C-terminal 12 aa] please.
Reply: 0.711

Task item: Also, WAIESVDENWRF [TOP1 C-terminal 12 aa] please.
Reply: 0.773

Task item: Also, TTEKKKKKCVLL [RHO1 C-terminal 12 aa] please.
Reply: 0.688

Task item: Also, RFLDYVRELESF [PDX1 C-terminal 12 aa] please.
Reply: 0.706

Task item: Also, KPLSKPAPDLDY [CWC25 C-terminal 12 aa] please.
Reply: 0.676

---

tested on: Saccharomyces cerevisiae; assay: protein stability index of tFT-peptide fusion (C-terminal peptide) (PSI (0-1 scale)); higher = more stable (slower turnover); conditions: genetic background: wild type; temperature: 30 C
protein stability index reference
API note: the answer field is a bare number with no unit suffix.

Example results:
{"Sequence String": "CISGRGIYAKAF", "protein stability index": 0.699}
{"Sequence String": "RGYEGSEVQVGV", "protein stability index": 0.677}
{"Sequence String": "PPSPSPPSPPSP", "protein stability index": 0.654}
{"Sequence String": "HSGPPSPFPLNV", "protein stability index": 0.718}
{"Sequence String": "KKKKIKIKKKKI", "protein stability index": 0.763}
{"Sequence String": "RHSREPRASMTR", "protein stability index": 0.641}

Task item: Look up protein stability index: DARKTKNRKDTA
Reply: 0.699
